Test system: VERO cells
assay context: ratio of IC50 in VERO cells to MIC (M. tuberculosis H37Rv)
Criterion: SI (selectivity index) strictly under 1. Met: Y. Not met: N.

Q) Report whether reported SI (selectivity index) is lower than 1 (strictly) for CC(=O)O[C@H]1CC2C(C3CC[C@H](C(C)CCC(N)=O)[C@]31C)[C@H](OC(C)=O)C[C@@H]1CC3(CC[C@]21C)OOC1(CCC(C)CC1)OO3 (some centres unmarked) [21/1C30]
A) Y

Q) Please give the result for CC(=O)O[C@H]1CC2C(C3CC[C@H](C(C)CCC(N)=O)[C@]31C)[C@H](OC(C)=O)C[C@@H]1CC3(CC[C@]21C)OOC1(CCC(C)CC1)OO3 (some centres unmarked) [17/1C26] too.
A) N

Q) Please give the result for CC(=O)O[C@H]1CC2C(C3CC[C@H](C(C)CCC(=O)O)[C@]31C)[C@H](OC(C)=O)C[C@@H]1CC3(CC[C@]21C)OOC1(CCC(c2ccccc2)CC1)OO3 (single isomer, unassigned) too.
A) Y

Q) Please give the result for CCC1CCC2(CC1)OOC1(CC[C@]3(C)C4C[C@H](OC(C)=O)[C@@]5(C)C(CC[C@@H]5C(C)CCC(=O)NC)C4[C@H](OC(C)=O)C[C@@H]3C1)OO2 (single isomer, unassigned) [30/1C41] too.
A) Y

Q) Please give the result for CCC1CCC2(CC1)OOC1(CC[C@]3(C)C4C[C@H](OC(C)=O)[C@@]5(C)C(CC[C@@H]5C(C)CCC(=O)O)C4[C@H](OC(C)=O)C[C@@H]3C1)OO2 (single isomer, unassigned) too.
A) Y

Q) Please give the result for CCC1CCC2(CC1)OOC1(CC[C@]3(C)C4C[C@H](OC(C)=O)[C@@]5(C)C(CC[C@@H]5C(C)CCC(=O)NC)C4[C@H](OC(C)=O)C[C@@H]3C1)OO2 (single isomer, unassigned) [26/1C36] too.
A) N

Q) Please give the result for CC(=O)O[C@H]1CC2C(C3CC[C@H](C(C)CCC(N)=O)[C@]31C)[C@H](OC(C)=O)C[C@@H]1CC3(CC[C@]21C)OOC1(CCCCC1)OO3 (some centres unmarked) too.
A) Y

Q) Please give the result for COC(=O)CNC(=O)CCC(C)[C@H]1CCC2C3C(C[C@H](OC(C)=O)[C@@]21C)[C@@]1(C)CCC2(C[C@H]1C[C@H]3OC(C)=O)OOC1(CCCCC1)OO2 (some centres unmarked) too.
A) Y

Q) Please give the result for CCCNC(=O)CCC(C)[C@H]1CCC2C3C(C[C@H](OC(C)=O)[C@@]21C)[C@@]1(C)CCC2(C[C@H]1C[C@H]3OC(C)=O)OOC1(CCC(CC)CC1)OO2 (single isomer, unassigned) too.
A) Y

Q) Please give the result for CCCNC(=O)CCC(C)[C@H]1CCC2C3C(C[C@H](OC(C)=O)[C@@]21C)[C@@]1(C)CCC2(C[C@H]1C[C@H]3OC(C)=O)OOC1(CCC(C)CC1)OO2 (some centres unmarked) too.
A) N

Q) Please give the result for CCNC(=O)CCC(C)[C@H]1CCC2C3C(C[C@H](OC(C)=O)[C@@]21C)[C@@]1(C)CCC2(C[C@H]1C[C@H]3OC(C)=O)OOC1(CCCCC1C)OO2 (some centres unmarked) too.
A) N

Values compiled from patent US6906098B2.
